molecular target: human uPAR (uPAR-Fc) (Homo sapiens, UniProt Q03405); construct: comprising amino acids Leu23-Arg303 according to UniProt entry Q03405.1; purchased R&D Systems 10378-UK-100; assay: Surface plasmon resonance (SPR) assay, single cycle kinetics; type: binding; conditions: pKD category for uPAR SPR activity assay; uPAR-Fc on Protein A-Chip, 25°C; read-out: pKD CAT (converted)
Sequence (Q03405 23-303): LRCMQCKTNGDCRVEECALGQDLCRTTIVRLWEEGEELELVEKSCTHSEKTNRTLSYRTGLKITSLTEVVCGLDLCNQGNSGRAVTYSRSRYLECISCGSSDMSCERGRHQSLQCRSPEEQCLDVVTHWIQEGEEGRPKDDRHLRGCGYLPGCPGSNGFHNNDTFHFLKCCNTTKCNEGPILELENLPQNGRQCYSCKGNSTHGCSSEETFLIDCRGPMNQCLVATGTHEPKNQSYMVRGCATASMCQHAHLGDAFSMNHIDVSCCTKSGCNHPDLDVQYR
Where a SMILES comes first, the peptide text is derived from it. Bridges are numbered along the chain shown (N, C = ends). [ ]: non-standard residue; d: D form. The star is where a group is joined. DOTA = O=C(O)CN1CCN(CC(=O)O)CCN(CC(=O)*)CCN(CC(=O)O)CC1; Hyp = O=C(O)[C@@H]1C[C@@H](O)CN1; 4Pal = N[C@@H](Cc1ccncc1)C(=O)O; Cit = NC(=O)NCCC[C@H](N)C(=O)O; dNle = CCCC[C@@H](N)C(=O)O; Nva = CCC[C@H](N)C(=O)O; Hexanoyl = CCCCCC(=O)*; Pentanoyl = CCCCC(=O)*; AEEA = NCCOCCOCC(=O)O
Readout: Kd

Example entries begin here.
Compound	Kd
CCCCCC(=O)N[C@@H](CO)C(=O)N[C@@H](CC(C)C)C(=O)N[C@H]1CSSC[C@@H](C(N)=O)NC(=O)[C@H](CC(C)C)NC(=O)[C@H]([C@@H](C)CC)NC(=O)[C@H](C)NC(=O)[C@@H]2CCCN2C(=O)[C@H](Cc2ccccc2)NC(=O)[C@H](Cc2ccccc2)NC(=O)[C@H](CCC(N)=O)NC(=O)[C@H](CC(=O)O)NC1=O [UPAR-202] (Hexanoyl-SLCDQFFPAILC-NH2; disulfide 3-12)	< 1.58 nM
CC[C@H](C)[C@@H]1NC(=O)[C@@H](C)NC(=O)[C@@H]2CCCN2C(=O)[C@H](Cc2ccccc2)NC(=O)[C@H](Cc2ccc(O)cc2)NC(=O)[C@H](CCC(N)=O)NC(=O)[C@H](CCCNC(N)=O)NC(=O)[C@@H](NC(=O)[C@H](CC(C)C)NC(=O)COCCOCCNC(=O)CN2CCN(CC(=O)O)CCN(CC(=O)O)CCN(CC(=O)O)CC2)CSSC[C@@H](C(N)=O)NC(=O)[C@H](CC(C)C)NC1=O [UPAR-245] ({DOTA-AEEA}-LC[Cit]QYFP[dA]ILC-NH2; disulfide 2-11)	< 1.58 nM
CCCC[C@H]1NC(=O)[C@H](CCCNC(=N)N)NC(=O)[C@@H](NC(=O)[C@H](CC(C)C)NC(=O)[C@H](CC(=O)O)NC(C)=O)CSSC[C@@H](C(N)=O)NC(=O)[C@H](CC(C)C)NC(=O)[C@H]([C@@H](C)CC)NC(=O)[C@H](C)NC(=O)[C@@H]2CCCN2C(=O)[C@H](Cc2ccccc2)NC(=O)[C@H](Cc2ccc(O)cc2)NC1=O [UPAR-274] (Ac-DLCR[dNle]YFPAILC-NH2; disulfide 3-12)	1.58 to 10 nM
CC[C@H](C)[C@@H]1NC(=O)[C@@H](C)NC(=O)[C@@H]2CCCN2C(=O)[C@H](Cc2ccccc2)NC(=O)[C@H](Cc2ccc(O)cc2)NC(=O)[C@H](CCC(N)=O)NC(=O)[C@H](CCCNC(N)=O)NC(=O)[C@@H](NC(C)=O)CSSC[C@@H](C(N)=O)NC(=O)[C@H](CC(C)C)NC1=O [UPAR-243] (Ac-C[Cit]QYFP[dA]ILC-NH2; disulfide 1-10)	> 100 nM

Turning now to a further compound:
Prompt: Given CCCCC(=O)N[C@H]1CSSC[C@@H](C(N)=O)NC(=O)[C@H](CCC)NC(=O)[C@H]([C@@H](C)CC)NC(=O)[C@@H]2C[C@@H](O)CN2C(=O)[C@@H]2CCCN2C(=O)[C@H](Cc2ccncc2)NC(=O)[C@H](Cc2ccc(O)cc2)NC(=O)[C@H](CCCCNC(=O)CN2CCN(CC(=O)O)CCN(CC(=O)O)CCN(CC(=O)O)CC2)NC(=O)[C@H](CCCNC(N)=O)NC1=O [UPAR-222] (Pentanoyl-C[Cit]K(DOTA)Y[4Pal]P[Hyp]I[Nva]C-NH2; disulfide 1-10) , report its Kd on human uPAR (uPAR-Fc) (Homo sapiens, UniProt Q03405).
Response: 1.58 to 10 nM

====

target: uPAR-expressing HEC-265 human endometrial adenocarcinoma cells (Homo sapiens)
Sequence (Q03405 23-335): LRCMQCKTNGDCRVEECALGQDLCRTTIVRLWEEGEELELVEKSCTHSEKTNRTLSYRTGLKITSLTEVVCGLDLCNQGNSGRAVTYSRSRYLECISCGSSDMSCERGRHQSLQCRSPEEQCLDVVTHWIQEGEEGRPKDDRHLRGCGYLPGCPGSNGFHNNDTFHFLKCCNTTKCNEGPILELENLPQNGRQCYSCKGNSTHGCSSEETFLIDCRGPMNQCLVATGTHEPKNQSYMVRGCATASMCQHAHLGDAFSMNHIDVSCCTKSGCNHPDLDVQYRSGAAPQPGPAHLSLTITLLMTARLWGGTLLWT
Where a SMILES comes first, the peptide text is derived from it. Bridges are numbered along the chain shown (N, C = ends). [ ]: non-standard residue; d: D form. The star is where a group is joined. hPhe = N[C@@H](CCc1ccccc1)C(=O)O; Pentanoyl(4-Me) = CC(C)CCC(=O)*; Cit = NC(=O)NCCC[C@H](N)C(=O)O; Nle = CCCC[C@H](N)C(=O)O
Listed below: IC50 values for each entry.

Compound	Target or system	Measured value
CC[C@H](C)[C@@H]1NC(=O)[C@@H](C)NC(=O)[C@@H]2CCCN2C(=O)[C@H](CCc2ccccc2)NC(=O)[C@H](Cc2ccc(O)cc2)NC(=O)[C@H](CCC(N)=O)NC(=O)[C@H](CCCNC(N)=O)NC(=O)[C@@H](NC(=O)CCC(C)C)CSSC[C@@H](C(N)=O)NC(=O)[C@H](CC(C)C)NC1=O [UPAR-180] ({Pentanoyl(4-Me)}-C[Cit]QY[hPhe]P[dA]ILC-NH2; disulfide 1-10)	uPAR-expressing HEC-265 human endometrial adenocarcinoma cells (Homo sapiens)	≥ 126 nM

Could you now consider this next compound?
Prompt: State the measured IC50 (uPAR-expressing HEC-265 human endometrial adenocarcinoma cells (Homo sapiens)) of CCCC[C@@H]1NC(=O)[C@H](CCCNC(=N)N)NC(=O)[C@@H](NC(=O)[C@H](CC(C)C)NC(=O)[C@H](CC(=O)O)NC(C)=O)CSSC[C@H](C(N)=O)NC(=O)[C@H](CC(C)C)NC(=O)[C@H]([C@@H](C)CC)NC(=O)[C@H](C)NC(=O)[C@@H]2CCCN2C(=O)[C@H](Cc2ccccc2)NC(=O)[C@H](Cc2ccc(O)cc2)NC1=O [UPAR-323] (Ac-DLCR[Nle]YFPAIL[dC]-NH2; disulfide 3-12)
Response: 12.6 to 31.6 nM

====

# key: entry, value: Kd
target: human uPAR (uPAR-Fc) (Homo sapiens, UniProt Q03405); construct: comprising amino acids Leu23-Arg303 according to UniProt entry Q03405.1; purchased R&D Systems 10378-UK-100; experiment: Surface plasmon resonance (SPR) assay, single cycle kinetics; format: binding; conditions: pKD category for uPAR SPR activity assay; uPAR-Fc on Protein A-Chip, single cycle kinetics, 25°C; read-out: pKD CAT (converted)
Where a SMILES comes first, the peptide text is derived from it. Bridges are numbered along the chain shown (N, C = ends). [ ]: non-standard residue; d: D form. The star is where a group is joined. Hyp = O=C(O)[C@@H]1C[C@@H](O)CN1; Pentanoyl(4-Me) = CC(C)CCC(=O)*; Cit = NC(=O)NCCC[C@H](N)C(=O)O; Aze = O=C(O)[C@@H]1CCN1; Nva = CCC[C@H](N)C(=O)O; Pentanoyl = CCCCC(=O)*; Ava = NCCCCC(=O)O

A selection of reference data follows.
Compound	Readout	Measured value
CC[C@H](C)[C@@H]1NC(=O)[C@@H]2CCN2C(=O)[C@@H]2CCCN2C(=O)[C@H](Cc2ccccc2)NC(=O)[C@H](Cc2ccc(O)cc2)NC(=O)[C@H](CCC(N)=O)NC(=O)[C@H](CCCNC(N)=O)NC(=O)[C@@H](NC(=O)CCC(C)C)CSSC[C@@H](C(N)=O)NC(=O)[C@H](CC(C)C)NC1=O [UPAR-446] ({Pentanoyl(4-Me)}-C[Cit]QYFP[Aze]ILC-NH2; disulfide 1-10)	Kd	< 1.58 nM
CCCCC(=O)N[C@H]1CSSC[C@@H](C(N)=O)NC(=O)[C@H](CCC)NC(=O)[C@H]([C@@H](C)CC)NC(=O)[C@@H]2C[C@@H](O)CN2C(=O)[C@@H]2CCCN2C(=O)[C@H](Cc2ccccc2)NC(=O)[C@H](Cc2c[nH]c3ccccc23)NC(=O)[C@H](CCC(N)=O)NC(=O)[C@H](CCCNC(=N)N)NC1=O [UPAR-401] (Pentanoyl-CRQWFP[Hyp]I[Nva]C-NH2; disulfide 1-10)	Kd	< 1.58 nM

Now, please, on to the next compound.
Prompt: Answer with the recorded Kd of CC[C@H](C)[C@@H]1NC(=O)[C@@H](C)NC(=O)[C@@H]2CCCN2C(=O)[C@H](Cc2ccccc2)NC(=O)[C@H](Cc2ccc(O)cc2)NC(=O)[C@H](CCC(N)=O)NC(=O)[C@H](CCCNC(N)=O)NC(=O)[C@@H](NC(=O)CCCCN)CSSC[C@@H](C(N)=O)NC(=O)[C@H](CC(C)C)NC1=O [UPAR-394] (H-[Ava]C[Cit]QYFP[dA]ILC-NH2; disulfide 2-11) only.
Response: > 100 nM
